biological target: DPP-VIII (Homo sapiens); construct: The full length cDNAs for human DPP-VII, DPP-VIII, DPP-IX, and FAP were obtained from Open Biosystems; 6xHis (C); made in house; assay: DPP-VIII IC50 assay (Ala-Pro AMC), selectivity versus DPP-IV; type: biochemical; details: IC50 of DPP-VIII divided by IC50 for DPP-IV
Sequence (Q6V1X1 whole entry): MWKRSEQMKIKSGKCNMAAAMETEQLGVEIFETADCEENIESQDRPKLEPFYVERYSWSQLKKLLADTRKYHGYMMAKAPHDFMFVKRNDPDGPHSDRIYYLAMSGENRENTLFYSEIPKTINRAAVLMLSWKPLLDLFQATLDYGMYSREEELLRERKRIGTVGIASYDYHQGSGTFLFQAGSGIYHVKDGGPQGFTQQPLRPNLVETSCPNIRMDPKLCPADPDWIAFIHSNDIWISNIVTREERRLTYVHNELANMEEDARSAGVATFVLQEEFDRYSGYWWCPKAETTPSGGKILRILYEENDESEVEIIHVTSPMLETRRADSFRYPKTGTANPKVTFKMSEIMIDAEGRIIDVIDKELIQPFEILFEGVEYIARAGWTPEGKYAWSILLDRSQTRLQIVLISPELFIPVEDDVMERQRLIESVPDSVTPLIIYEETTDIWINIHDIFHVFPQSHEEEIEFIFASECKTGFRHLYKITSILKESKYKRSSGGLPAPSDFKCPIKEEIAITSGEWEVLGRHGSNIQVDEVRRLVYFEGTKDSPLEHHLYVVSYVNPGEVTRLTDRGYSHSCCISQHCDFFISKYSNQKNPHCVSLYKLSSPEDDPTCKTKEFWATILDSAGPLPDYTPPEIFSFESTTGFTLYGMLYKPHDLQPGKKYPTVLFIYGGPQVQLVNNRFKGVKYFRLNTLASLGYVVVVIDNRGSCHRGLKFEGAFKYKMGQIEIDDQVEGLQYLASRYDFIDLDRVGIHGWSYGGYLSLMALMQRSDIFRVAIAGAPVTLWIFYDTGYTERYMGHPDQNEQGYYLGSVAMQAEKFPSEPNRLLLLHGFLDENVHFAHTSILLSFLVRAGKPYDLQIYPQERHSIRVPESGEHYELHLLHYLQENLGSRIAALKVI
Measurement label: Selectivity Ratios DPP-VIII

Example entries and their recorded answers appear below.
molecule=CC(C)S(=O)(=O)N1CC[C@@H](N)[C@H](C(=O)N2CCC[C@H]2B(O)O)C1 measurement_label="Selectivity Ratios DPP-VIII" value="C (10 < C ≦ 50)"
molecule=N[C@@H]1CCN(S(=O)(=O)c2ccccc2)C[C@H]1C(=O)N1CCC[C@H]1B(O)O measurement_label="Selectivity Ratios DPP-VIII" value="D (50 < D ≦ 100)"
molecule=N[C@@H]1CCN(S(=O)(=O)c2cc(F)c(F)cc2F)C[C@H]1C(=O)N1CCC[C@H]1B(O)O measurement_label="Selectivity Ratios DPP-VIII" value="C (10 < C ≦ 50)"
molecule=N[C@@H]1CCN(S(=O)(=O)c2ccc(F)cc2)C[C@H]1C(=O)N1CCC[C@H]1B(O)O measurement_label="Selectivity Ratios DPP-VIII" value="D (50 < D ≦ 100)"
molecule=N[C@@H]1CCN(S(=O)(=O)c2cccc(F)c2)C[C@H]1C(=O)N1CCC[C@H]1B(O)O measurement_label="Selectivity Ratios DPP-VIII" value="D (50 < D ≦ 100)"

Exercise: Please look at Cl.O=C(CN[C@@H]1CCCNC1)N1CCC[C@H]1B(O)O [Compound 21, reference compound] and tell me its recorded Selectivity Ratios DPP-VIII on DPP-VIII (Homo sapiens).
Solution: B (1 < B ≦ 10)

Exercise: Please look at N[C@@H]1CCN(S(=O)(=O)c2ccccc2F)C[C@H]1C(=O)N1CCC[C@H]1B(O)O and tell me its recorded Selectivity Ratios DPP-VIII on DPP-VIII (Homo sapiens).
Solution: C (10 < C ≦ 50)

Exercise: Please look at N[C@@H]1CN(S(=O)(=O)c2cccc3ccccc23)CC[C@H]1C(=O)N1CCC[C@H]1B(O)O and tell me its recorded Selectivity Ratios DPP-VIII on DPP-VIII (Homo sapiens).
Solution: C (10 < C ≦ 50)

Exercise: Please look at CS(=O)(=O)N1CC[C@@H](N)[C@H](C(=O)N2CCC[C@H]2B(O)O)C1 and tell me its recorded Selectivity Ratios DPP-VIII on DPP-VIII (Homo sapiens).
Solution: C (10 < C ≦ 50)

Exercise: Please look at CS(=O)(=O)c1ccc(S(=O)(=O)N2CC[C@@H](N)[C@H](C(=O)N3CCC[C@H]3B(O)O)C2)cc1 and tell me its recorded Selectivity Ratios DPP-VIII on DPP-VIII (Homo sapiens).
Solution: D (50 < D ≦ 100)

Exercise: Please look at O=C(CNC1CCNCC1)N1CCC[C@H]1B(O)O [Compound 20, reference compound] and tell me its recorded Selectivity Ratios DPP-VIII on DPP-VIII (Homo sapiens).
Solution: B (1 < B ≦ 10)

Exercise: Please look at N[C@@H]1CCN(S(=O)(=O)c2ccc(-c3ccccc3)cc2)C[C@H]1C(=O)N1CCC[C@H]1B(O)O and tell me its recorded Selectivity Ratios DPP-VIII on DPP-VIII (Homo sapiens).
Solution: E (E > 100)

Exercise: Please look at N[C@@H]1CCN(S(=O)(=O)c2ccc(F)cc2F)C[C@H]1C(=O)N1CCC[C@H]1B(O)O and tell me its recorded Selectivity Ratios DPP-VIII on DPP-VIII (Homo sapiens).
Solution: D (50 < D ≦ 100)

Exercise: Please look at N[C@@H]1CCN(S(=O)(=O)c2cccc(-c3ccccc3)c2)C[C@H]1C(=O)N1CCC[C@H]1B(O)O and tell me its recorded Selectivity Ratios DPP-VIII on DPP-VIII (Homo sapiens).
Solution: E (E > 100)

From: patent US7825139B2
